Here, each record is paired with measured pKi data.
Biological target: human α-thrombin (Homo sapiens (Human), UniProt P00734)
Test: Enzymatic assay for thrombin (Boc-VPR-AMC substrate)
Format: biochemical
Conditions: read-out: Thrombin Ki
pKi: −log10 of the molar value. Structures can show the parent of a compound that is named as a salt.

Q: Fill in: pKi of Cc1nc(N)ccc1CNC(=O)[C@H](C)NC(=O)[C@H]1C[C@@H](c2ccccc2)CCN1CC(=O)O [compound 1398, Trifluoroacetate salt] is ___
Ans: < 4.60

Q: // returns reported pKi for input C[C@H](NC(=O)[C@@H](CCc1ccccc1)NCC(=O)O)C(=O)NCc1ccc(C(=N)N)cc1 [compound 1110]
Ans: > 6.30

Q: Return reported pKi; argument: C[C@H](NC(=O)[C@H](N)CCc1ccc(Cl)cc1)C(=O)NCc1ccc(C(=N)N)cc1 [compound 1080]
Ans: > 6.30

Q: Which measured pKi value corresponds to Cc1nc(N)ccc1CNC(=O)[C@H](C)NC(=O)[C@H]1C[C@H](Cc2ccccc2Br)CN1 [compound 1372, Di-trifluoroacetate salt] ?
Ans: > 6.30

Q: Item C[C@H](NC(=O)[C@@H](CCc1ccccc1)NCCc1cccc(O)c1)C(=O)NCc1ccc(C(=N)N)cc1 [compound 1330, Di-trifluoroacetate salt] has what recorded pKi?
Ans: > 6.30

Q: Item C[C@H](NC(=O)[C@H](N)Cc1ccc2ccccc2c1)C(=O)NCc1ccc(C(=N)N)cc1 [compound 1093] has what recorded pKi?
Ans: > 6.30

Q: Fill blank: measured pKi of the compound Cc1nc(N)ccc1CNC(=O)[C@H](C)NC(=O)[C@@H](CCc1ccccc1)NCCc1cccc(O)c1 [compound 1349, Dihydrochloride] is ____.
Ans: < 4.60

Q: Give its pKi value. Item: C[C@H](NC(=O)[C@H]1C[C@H](Cc2cccc3ccccc23)CN1)C(=O)NCc1cc(Cl)ccc1-n1cnnn1 [compound 1414, Hydrochloride]
Ans: > 6.30

Q: What value of pKi has been recorded for this entry: Cc1cc(Br)cc(CNC(=O)[C@H](C)NC(=O)[C@H](N)CCc2ccccc2)c1O [compound 1355, Trifluoroacetate salt]
Ans: < 4.60

Q: Can you share its pKi? I mean this compound: N=C(N)c1ccc(CNC(=O)[C@@H]2CCCN2C(=O)[C@H](NCC(=O)O)C2CCCCC2)cc1 [compound 1115]
Ans: > 6.30
